Examples of compounds with documented EC-1 MIC follow.
- Test system: EC-1, mouse virulent strain of Escherichia coli
- Assay type: cell-based
- MEASUREMENT_CONDITIONS: E. coli EC-1; overnight incubation, lower of duplicate values; trifluoroacetate salt (Example 1 and PMB sulfate)
Numbered stars: 1 amine (or outer) side, 2 acyl side, 3 side chain; on linkers, the order of the positions; unused ones are H or OH. Bridge positions count the residues as written; N and C are the ends. Square brackets hold non-standard residues; d marks the D form. Peptide text beside a SMILES is read from it. * marks the point of attachment. X15 = O=C(c1cccc(-c2cccc(F)c2)c1)*; X36 = c1ccc(-c2cccc(N*)c2)cc1; Dab = NCC[C@H](N)C(=O)O; Dap = NC[C@H](N)C(=O)O; CO = O=C([*:1])[*:2]

{"columns": ["COMPOUND", "TGT", "EC-1 MIC / µg/mL"],
 "data": [
  ["CC(C)C[C@@H]1NC(=O)[C@@H](Cc2ccccc2)NC(=O)[C@H](CCN)NC(=O)[C@@H](NC(=O)[C@H](CN)NC(=O)[C@@H](NC(=O)[C@H](CCN)NC(=O)c2cccc(-c3cccc(F)c3)c2)[C@@H](C)O)CCNC(=O)[C@H]([C@@H](C)O)NC(=O)[C@H](CCN)NC(=O)[C@H](CCN)NC1=O [Example 18] (X15-[Dab]T[Dap][Dab][Dab][dF]L[Dab][Dab]T; lactam 4-C)", "EC-1, mouse virulent strain of Escherichia coli", 0.25],
  ["CC(C)C[C@@H]1NC(=O)[C@@H](Cc2ccccc2)NC(=O)[C@H](CCN)NC(=O)[C@@H](NC(=O)[C@H](CN)NC(=O)[C@@H](NC(=O)[C@H](CCN)NC(=O)Nc2cccc(-c3ccccc3)c2)[C@@H](C)O)CCNC(=O)[C@H]([C@@H](C)O)NC(=O)[C@H](CCN)NC(=O)[C@H](CCN)NC1=O [Example 40] ({X36-CO}-[Dab]T[Dap][Dab][Dab][dF]L[Dab][Dab]T; lactam 4-C)", "EC-1, mouse virulent strain of Escherichia coli", 0.25]
]}

----------
- PROTOCOL_TEXT: Cytotoxicity assay (LDH release), hRPTEC
- Format: cell-based, human
- MEASUREMENT_CONDITIONS: human
Bridge positions count the residues as written; N and C are the ends. Square brackets hold non-standard residues; d marks the D form. Peptide text beside a SMILES is read from it. * marks the point of attachment. Isonicotinoyl(2-Ph) = O=C(c1ccnc(-c2ccccc2)c1)*; Benzoyl(4-Ph) = O=C(c1ccc(-c2ccccc2)cc1)*; X26 = O=C(c1ccnc(-c2ccc(Cl)cc2)c1)*; X10 = COc1nc(-c2ccccc2)ccc1C(=O)*; X24 = COc1ccc(-c2ccccc2)cc1C(=O)*; Dab = NCC[C@H](N)C(=O)O; Dap = NC[C@H](N)C(=O)O
Examples of compounds with documented CC50 at 24 h follow.

{"columns": ["COMPOUND", "MEASURE_UNIT", "CC50 at 24 h"],
 "data": [
  ["CC(C)C[C@@H]1NC(=O)[C@@H](Cc2ccccc2)NC(=O)[C@H](CCN)NC(=O)[C@@H](NC(=O)[C@H](CN)NC(=O)[C@@H](NC(=O)[C@H](CCN)NC(=O)c2ccnc(-c3ccccc3)c2)[C@@H](C)O)CCNC(=O)[C@H]([C@@H](C)O)NC(=O)[C@H](CCN)NC(=O)[C@H](CCN)NC1=O [Example 1] ({Isonicotinoyl(2-Ph)}-[Dab]T[Dap][Dab][Dab][dF]L[Dab][Dab]T; lactam 4-C)", "µM", 95],
  ["COc1ccc(-c2ccccc2)cc1C(=O)N[C@@H](CCN)C(=O)N[C@H](C(=O)N[C@@H](CN)C(=O)N[C@H]1CCNC(=O)[C@H]([C@@H](C)O)NC(=O)[C@H](CCN)NC(=O)[C@H](CCN)NC(=O)[C@H](CC(C)C)NC(=O)[C@@H](Cc2ccccc2)NC(=O)[C@H](CCN)NC1=O)[C@@H](C)O [Example 36] (X24-[Dab]T[Dap][Dab][Dab][dF]L[Dab][Dab]T; lactam 4-C)", "µM", 19],
  ["COc1nc(-c2ccccc2)ccc1C(=O)N[C@@H](CCN)C(=O)N[C@H](C(=O)N[C@@H](CN)C(=O)N[C@H]1CCNC(=O)[C@H]([C@@H](C)O)NC(=O)[C@H](CCN)NC(=O)[C@H](CCN)NC(=O)[C@H](CC(C)C)NC(=O)[C@@H](Cc2ccccc2)NC(=O)[C@H](CCN)NC1=O)[C@@H](C)O [Example 38] (X10-[Dab]T[Dap][Dab][Dab][dF]L[Dab][Dab]T; lactam 4-C)", "µM", 16],
  ["CC(C)C[C@@H]1NC(=O)[C@@H](Cc2ccccc2)NC(=O)[C@H](CCN)NC(=O)[C@@H](NC(=O)[C@H](CN)NC(=O)[C@@H](NC(=O)[C@H](CCN)NC(=O)c2ccnc(-c3ccc(Cl)cc3)c2)[C@@H](C)O)CCNC(=O)[C@H]([C@@H](C)O)NC(=O)[C@H](CCN)NC(=O)[C@H](CCN)NC1=O [Example 44] (X26-[Dab]T[Dap][Dab][Dab][dF]L[Dab][Dab]T; lactam 4-C)", "µM", 30],
  ["CC(C)C[C@@H]1NC(=O)[C@@H](Cc2ccccc2)NC(=O)[C@H](CCN)NC(=O)[C@@H](NC(=O)[C@H](CN)NC(=O)[C@@H](NC(=O)[C@H](CCN)NC(=O)c2ccc(-c3ccccc3)cc2)[C@@H](C)O)CCNC(=O)[C@H]([C@@H](C)O)NC(=O)[C@H](CCN)NC(=O)[C@H](CCN)NC1=O [Example 45] ({Benzoyl(4-Ph)}-[Dab]T[Dap][Dab][Dab][dF]L[Dab][Dab]T; lactam 4-C)", "µM", 28]
]}
